Each record here notes measured inhibition.
- protocol notes: Percentage inhibition of murine protein phosphatase 2A at 1 mM.
The figure you give is taken to be in %; do not add the unit.

{"molecule": "CC(C)C[C@H](NC(=O)[C@@H](C)N)C(=O)N[C@@H](CC(=O)N[C@@H](C)C(=O)NCCC(=O)N[C@H](CCC(=O)N[C@@H](C)C(=O)O)C(=O)O)C(=O)O", "parameter": "inhibition", "experimental value": 12}
{"molecule": "CC(C)C[C@@H]1NC(=O)[C@@H](C)NC(=O)[C@H](CC(=O)O)NC(=O)[C@@H](CCC(=O)O)NC(=O)[C@H](CS)NC(=O)[C@H](C)NC(=O)[C@@H](CC(=O)O)NC1=O", "parameter": "inhibition", "experimental value": 86}
{"molecule": "CC(C)C[C@H](NC(=O)[C@@H](C)N)C(=O)N[C@@H](CC(=O)N[C@@H](C)C(=O)NCCC(=O)N[C@H](CCC(=O)N[C@@H](CC(=O)O)C(N)=O)C(=O)O)C(=O)O", "parameter": "inhibition", "experimental value": 11}
{"molecule": "CC(C)C[C@H](NC(=O)[C@@H](C)N)C(=O)NCCC(=O)N[C@@H](C)C(=O)N[C@H](CC(=O)O)C(=O)N[C@H](CCC(=O)O)C(=O)N[C@@H](C)C(=O)O", "parameter": "inhibition", "experimental value": 14}
{"molecule": "CC(C)C[C@H](NC(=O)[C@@H](C)NC(=O)[C@H](C)NC(=O)[C@@H](CCC(=O)O)NC(=O)[C@@H](N)CS)C(=O)N[C@H](CC(=O)O)C(=O)N[C@@H](C)C(=O)O", "parameter": "inhibition", "experimental value": 22}
{"molecule": "CC(C)C[C@H](NC(=O)[C@@H](C)N)C(=O)N[C@@H](CC(=O)N[C@@H](C)C(=O)N[C@@H](C)C(=O)N[C@@H](CCC(=O)N[C@@H](C)C(=O)O)C(=O)O)C(=O)O", "parameter": "inhibition", "experimental value": 22}
{"molecule": "CC(C)C[C@H]1NC(=O)[C@H](C)NC(=O)[C@@H](CC(=O)O)NC(=O)CCCNC(=O)CCNC(=O)[C@@H](C)NC(=O)C[C@@H](C(=O)O)NC1=O", "parameter": "inhibition", "experimental value": 42}
{"molecule": "CC(C)C[C@H](NC(=O)[C@@H](C)N)C(=O)N[C@H](CC(=O)O)C(=O)N[C@@H](C)C(=O)N[C@@H](CS)C(=O)N[C@H](CCC(=O)O)C(=O)N[C@@H](CC(=O)O)C(N)=O", "parameter": "inhibition", "experimental value": 17}

Lookup: Note inhibition for the compound shown: CC(C)C[C@H](NC(=O)[C@@H](C)NC(=O)[C@H](C)NC(=O)CC[C@@H](NC(=O)[C@@H](N)CS)C(=O)O)C(=O)N[C@H](CC(=O)N[C@@H](C)C(=O)O)C(=O)O
Found: 19

Lookup: Note inhibition for the compound shown: CC(C)C[C@H]1NC(=O)[C@H](C)NC(=O)[C@@H](CC(=O)O)NC(=O)CCCNC(=O)[C@@H](CS)NC(=O)[C@@H](C)NC(=O)C[C@@H](C(=O)O)NC1=O
Found: 45

---

- protocol notes: Percentage inhibition of murine protein phosphatase 2A at 1 mM.
parameter: inhibition
Could you kindly put the unit after your number?

{"molecule": "CC(C)C[C@H](NC(=O)[C@@H](C)N)C(=O)NCCC(=O)N[C@@H](C)C(=O)N[C@@H](CC(=O)O)C(=O)N[C@@H](CCC(=O)N[C@@H](C)C(=O)O)C(=O)O", "inhibition": "12%"}
{"molecule": "CC(C)C[C@H](NC(=O)[C@@H](C)N)C(=O)N[C@@H](CC(=O)N[C@@H](C)C(=O)N[C@@H](CS)C(=O)N[C@H](CCC(=O)N[C@@H](CC(=O)O)C(N)=O)C(=O)O)C(=O)O", "inhibition": "18%"}
{"molecule": "CC(C)C[C@H](NC(=O)[C@@H](C)N)C(=O)N[C@H](CC(=O)O)C(=O)N[C@@H](C)C(=O)NCCC(=O)N[C@H](CCC(=O)O)C(=O)N[C@@H](CC(=O)O)C(N)=O", "inhibition": "1%"}
{"molecule": "CC(C)C[C@H]1NC(=O)[C@H](C)NC(=O)[C@@H](CC(=O)O)NC(=O)[C@H](CCC(=O)O)NC(=O)CCNC(=O)[C@@H](C)NC(=O)[C@H](CC(=O)O)NC1=O", "inhibition": "21%"}
{"molecule": "CC(C)C[C@H](NC(=O)[C@@H](C)NC(=O)[C@H](C)NC(=O)CC[C@@H](NC(=O)CCN)C(=O)O)C(=O)N[C@H](CC(=O)N[C@@H](C)C(=O)O)C(=O)O", "inhibition": "15%"}

Lookup: Note inhibition for the molecule shown: C[C@H](NC(=O)[C@@H](CC(=O)O)NC(=O)[C@H](C)NC(=O)[C@@H](CCC(=O)O)NC(=O)CCN)C(=O)O
Found: 30%

Lookup: Note inhibition for the molecule shown: CC(C)C[C@H]1NC(=O)[C@H](C)NC(=O)[C@@H](C)NC(=O)CC[C@@H](C(=O)O)NC(=O)CCNC(=O)[C@@H](C)NC(=O)C[C@@H](C(=O)O)NC1=O
Found: 3%

Lookup: Note inhibition for the molecule shown: CC(C)C[C@H](NC(=O)[C@@H](C)N)C(=O)N[C@H](CC(=O)O)C(=O)N[C@@H](C)C(=O)N[C@@H](CC(=O)O)C(=O)N[C@H](CCC(=O)O)C(=O)N[C@@H](C)C(=O)O
Found: 11%

Lookup: Note inhibition for the molecule shown: CC(C)C[C@H](NC(=O)[C@@H](C)N)C(=O)N[C@@H](CC(=O)N[C@@H](C)C(=O)N[C@@H](CC(=O)O)C(=O)N[C@H](CCC(=O)N[C@@H](C)C(=O)O)C(=O)O)C(=O)O
Found: 21%

Lookup: Note inhibition for the molecule shown: CC(C)C[C@H](NC(=O)[C@@H](C)NC(=O)[C@H](C)NC(=O)[C@@H](CCC(=O)O)NC(=O)CCN)C(=O)N[C@H](CC(=O)O)C(=O)N[C@@H](C)C(=O)O
Found: 16%

Lookup: Note inhibition for the molecule shown: C[C@H](NC(=O)C[C@H](NC(=O)[C@H](C)NC(=O)CC[C@@H](NC(=O)CCN)C(=O)O)C(=O)O)C(=O)O
Found: 19%

---

- protocol notes: Compound was tested for inhibition of protein phosphatase 2A (PP2A).
Numbered stars: 1 amine (or outer) side, 2 acyl side, 3 side chain; on linkers, the order of the positions; unused ones are H or OH. Bridge positions count the residues as written; N and C are the ends. Square brackets hold non-standard residues; d marks the D form. Peptide text beside a SMILES is read from it. Adda = CO[C@@H](Cc1ccccc1)[C@@H](C)/C=C(C)/C=C/[C@H](N[*:1])[C@H](C)C(=O)[*:2]; dAsp(3S-Me) = C[C@H](C(=O)[*:3])[C@@H](N[*:1])C(=O)[*:2]; d(γGlu) = O=C(O)[C@@H](CCC(=O)[*:2])N[*:1]; NMeDha = C=C(NC)C(=O)O
parameter: IC50
Could you kindly put the unit after your number?

Please review the following examples before continuing.
{"compound": "CC(C)C[C@H]1NC(=O)[C@H](C)NC(=O)[C@@H](CC(=O)O)NC(=O)CCCNC(=O)[C@@H](CS)NC(=O)[C@@H](C)NC(=O)C[C@@H](C(=O)O)NC1=O", "experimental value": "10 mM"}
{"compound": "C[C@H](NC(=O)[C@@H](CC(=O)O)NC(=O)[C@H](C)NC(=O)[C@@H](CCC(=O)O)NC(=O)CCN)C(=O)O", "experimental value": "10 mM"}
{"compound": "C=C1C(=O)N[C@H](C)C(=O)N[C@@H](CC(C)C)C(=O)N[C@@H](C(=O)O)[C@H](C)C(=O)N[C@@H](CCCNC(=N)N)C(=O)N[C@@H](/C=C/C(C)=C/[C@H](C)[C@H](Cc2ccccc2)OC)[C@H](C)C(=O)N[C@@H](C(=O)O)CCC(=O)N1C [MICROCYSTIN-LR] (R[Adda][d(γGlu)][NMeDha][dA]L[dAsp(3S-Me)]-OH; lactam N-7)", "experimental value": "0.2 mM"}

--- query ---
Lookup: Note IC50 for the compound shown: CC(C)C[C@@H]1NC(=O)[C@@H](C)NC(=O)[C@H](CC(=O)O)NC(=O)[C@@H](CCC(=O)O)NC(=O)[C@H](CS)NC(=O)[C@H](C)NC(=O)[C@@H](CC(=O)O)NC1=O
Found: 0.5 mM
